Tested on: alkaline phosphatase
measurementNotes: Quantum yield determination of dioxetane chemiluminescence after alkaline phosphatase addition
Assay type: biochemical
measurementContext: second table, 0.1M DEA, pH, 25° C.; dioxetane concentration 3.7 × 10^−7M to 6 × 10^−6M
Method: Various dioxetanes within the scope of this invention have been prepared and tested for essential properties, such as quantum yield (performed by an independent laboratory according to the procedure listed below), T½ and the emission wavelength maxima. […] […] The tube was then placed in MGM Optocomp® I luminometer and the light signal was measured at 1 sec integration times. […] The total counts for the dioxetane were determined from the intensity data. […]
quantityName: Quantum Yield

[
  {
    "molecule": "COC1(c2cccc(OP(=O)(O)O)c2)OOC12C1CC3CC(C1)CC2C3 (stereo not drawn) [AMPPD, reference compound]",
    "quantityName": "Quantum Yield",
    "measurement": "1.5 × 10^−5"
  },
  {
    "molecule": "COC1(c2cc(Cl)cc(OP(=O)([O-])[O][NaH2-2])c2)OOC12C1CC3CC(C1)CC2C3.[Na+] (stereo not drawn) [Dioxetane 128-70]",
    "quantityName": "Quantum Yield",
    "measurement": "1.4 × 10^−4"
  },
  {
    "molecule": "COc1cc(OP(=O)([O-])[O][NaH2-2])cc(C2(OC)OOC23C2CC4CC3CC(Cl)(C4)C2)c1.[Na+] (stereo not drawn) [Dioxetane 140-17]",
    "quantityName": "Quantum Yield",
    "measurement": "2.3 × 10^−5"
  },
  {
    "molecule": "COc1cc(OP(=O)([O-])[O][NaH2-2])cc(C2(OC)OOC23C2CC4CC(C2)CC3C4)c1.[Na+] (stereo not drawn) [Dioxetane 140-20]",
    "quantityName": "Quantum Yield",
    "measurement": "1.5 × 10^−5"
  },
  {
    "molecule": "COC1(c2cc(Cl)cc(OP(=O)([O-])[O][NaH2-2])c2)OOC12C1CC3CC2CC(Cl)(C3)C1.[Na+] (stereo not drawn) [Dioxetane 128-87]",
    "quantityName": "Quantum Yield",
    "measurement": "1.2 × 10^−4"
  }
]

As a next step, examine the molecule that follows.
Ask: Specify measured Quantum Yield for COC1(c2cccc(OP(=O)(O)O)c2)OOC12C1CC3CC2CC(Cl)(C3)C1 (stereo not drawn) [CSPD, reference compound] .
Reply: 5.2 × 10^−5

---

Test system: alkaline phosphatase
measurementNotes: Chemiluminescence emission wavelength maximum (Spex Fluorolog)
Type: biochemical
measurementContext: in the presence of BDMQ
Give measured Emission Max, nm, +BDMQ for each item. Keep answers brief.
Record the result as a number with its unit.

Sample records with Emission Max, nm, +BDMQ:
[
  {
    "molecule": "COc1cc(OP(=O)([O-])[O][NaH2-2])cc(C2(OC)OOC23C2CC4CC(C2)CC3C4)c1.[Na+] (stereo not shown)",
    "Emission Max, nm, +BDMQ": "466 nm"
  },
  {
    "molecule": "COC1(c2cc(Cl)cc(OP(=O)([O-])[O][NaH2-2])c2)OOC12C1CC3CC2CC(Cl)(C3)C1.[Na+] (stereo not shown)",
    "Emission Max, nm, +BDMQ": "464 nm"
  },
  {
    "molecule": "COC1(c2cc(Cl)cc(OP(=O)([O-])[O][NaH2-2])c2)OOC12C1CC3CC(C1)CC2C3.[Na+] (stereo not shown)",
    "Emission Max, nm, +BDMQ": "463 nm"
  }
]

As a next step, examine the molecule that follows.
Ask: Specify measured Emission Max, nm, +BDMQ for COc1cc(OP(=O)([O-])[O][NaH2-2])cc(C2(OC)OOC23C2CC4CC3CC(Cl)(C4)C2)c1.[Na+] (stereo not shown) .
Reply: 464 nm
